test: Inhibition of soybean 15-lipoxygenase assessed as residual activity by spectrophotometry; design: species or system Glycine max
assay-readout: IC50
State the value with its unit after it.

Lookup: Fill blank: measured IC50 of the molecule C=C[C@]1(C)C=C2CC[C@@H]3[C@](C)(CCC[C@@]3(C)C(=O)O)[C@H]2CC1 is ____.
Found: 650 µM
